Each recorded value in this set is attributed to patent US20180148504A1.

biological target: T1, recombinant purified FRα (ECL assay calibrator) (human, UniProt P15328 25-234); test: ECL sandwich on FRα, signal to background; capture 5C12.H8; binder = detection Ab
T1 construct: Calibrator of the ECL sandwich assays; also called FRα calibrator; FRα standard
T1 sequence (P15328 25-234 limits assumed): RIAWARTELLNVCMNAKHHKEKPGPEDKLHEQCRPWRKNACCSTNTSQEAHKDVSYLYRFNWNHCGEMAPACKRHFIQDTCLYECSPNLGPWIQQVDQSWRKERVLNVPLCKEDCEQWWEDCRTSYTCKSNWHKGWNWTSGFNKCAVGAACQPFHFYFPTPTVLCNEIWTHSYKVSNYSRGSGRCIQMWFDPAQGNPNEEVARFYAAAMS

{"columns": ["Binder", "Average of S/B"],
 "data": [
  ["Monoclonal antibody 1D2.D8.G10 (antibody, mouse IgG1, V domains shown, Murine IgG1 kappa from hybridoma; also called 1D2.D8.G0; ATCC PTA-123098) VH: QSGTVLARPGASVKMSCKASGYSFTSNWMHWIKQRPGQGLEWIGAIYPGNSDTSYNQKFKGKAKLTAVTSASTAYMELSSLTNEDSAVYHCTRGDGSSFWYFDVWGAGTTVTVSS VL: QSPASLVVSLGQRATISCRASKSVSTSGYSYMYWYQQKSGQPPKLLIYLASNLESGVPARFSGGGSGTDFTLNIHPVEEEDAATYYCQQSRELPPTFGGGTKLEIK", 1],
  ["Monoclonal antibody 6A2.G7 (antibody, mouse IgG1, V domains shown, Murine IgG1 kappa from hybridoma; also called ATCC PTA-123093) VH: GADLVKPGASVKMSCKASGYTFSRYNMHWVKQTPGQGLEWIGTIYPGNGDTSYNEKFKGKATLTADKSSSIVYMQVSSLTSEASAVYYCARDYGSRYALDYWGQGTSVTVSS VL: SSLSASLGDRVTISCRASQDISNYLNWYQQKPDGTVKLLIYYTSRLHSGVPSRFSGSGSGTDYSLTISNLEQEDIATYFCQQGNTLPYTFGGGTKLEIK", 1],
  ["Monoclonal antibody 26A9.C4 (antibody, mouse IgG1, V domains shown, Murine IgG1 kappa from hybridoma; also called ATCC PTA-123092) VH: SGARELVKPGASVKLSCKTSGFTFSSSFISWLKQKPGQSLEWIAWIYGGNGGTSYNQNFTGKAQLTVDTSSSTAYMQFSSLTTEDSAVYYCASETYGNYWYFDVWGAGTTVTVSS VL: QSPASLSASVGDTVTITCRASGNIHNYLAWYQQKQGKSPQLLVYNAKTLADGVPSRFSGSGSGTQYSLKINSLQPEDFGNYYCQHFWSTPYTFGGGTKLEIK", 1],
  ["Monoclonal antibody 19D4.B7 (antibody, mouse IgG2a, V domains shown, SULFO-TAG conjugated when used as detection antibody in the ECL assay; also called ATCC PTA-11884) VH: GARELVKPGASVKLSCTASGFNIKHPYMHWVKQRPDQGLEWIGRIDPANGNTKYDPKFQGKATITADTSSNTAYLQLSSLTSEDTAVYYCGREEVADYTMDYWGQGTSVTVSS VL: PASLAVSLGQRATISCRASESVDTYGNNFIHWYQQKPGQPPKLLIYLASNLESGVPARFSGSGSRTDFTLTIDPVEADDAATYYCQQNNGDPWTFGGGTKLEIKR", 5],
  ["Monoclonal antibody 1A8.G11.E7 (antibody, mouse IgG1, V domains shown, Murine IgG1 kappa from hybridoma; also called ATCC PTA-123100) VH: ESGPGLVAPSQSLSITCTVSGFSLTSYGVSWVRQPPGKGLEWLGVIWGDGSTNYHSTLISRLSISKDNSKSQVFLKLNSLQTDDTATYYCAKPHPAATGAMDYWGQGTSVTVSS VL: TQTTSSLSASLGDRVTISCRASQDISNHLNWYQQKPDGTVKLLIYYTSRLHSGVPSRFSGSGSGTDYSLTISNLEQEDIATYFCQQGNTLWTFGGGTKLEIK", 1],
  ["Monoclonal antibody 24H8.F3 (antibody, mouse IgG1, V domains shown, Murine IgG1 kappa from hybridoma; also called ATCC PTA-123097) VH: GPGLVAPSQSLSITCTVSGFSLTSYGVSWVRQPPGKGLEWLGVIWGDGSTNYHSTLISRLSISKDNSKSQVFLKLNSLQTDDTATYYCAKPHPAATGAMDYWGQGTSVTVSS VL: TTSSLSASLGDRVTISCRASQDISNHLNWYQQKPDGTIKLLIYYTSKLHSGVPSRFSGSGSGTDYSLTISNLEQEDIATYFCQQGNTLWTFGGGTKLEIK", 2],
  ["Monoclonal antibody 1C6.E12.G8 (antibody, mouse IgG1, V domains shown, Murine IgG1 kappa from hybridoma; also called ATCC PTA-123091) VH: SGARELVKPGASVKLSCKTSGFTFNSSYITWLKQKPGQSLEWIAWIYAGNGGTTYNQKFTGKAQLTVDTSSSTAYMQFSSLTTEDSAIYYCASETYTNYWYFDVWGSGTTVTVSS VL: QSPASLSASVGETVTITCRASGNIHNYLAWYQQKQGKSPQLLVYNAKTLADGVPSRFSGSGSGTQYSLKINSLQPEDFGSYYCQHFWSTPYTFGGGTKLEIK", 1],
  ["Monoclonal antibody 24H8.D3 (antibody, mouse IgG1, V domains shown, Biotin-conjugated when used as capture antibody in the ECL assay; also called ATCC PTA-123090) VH: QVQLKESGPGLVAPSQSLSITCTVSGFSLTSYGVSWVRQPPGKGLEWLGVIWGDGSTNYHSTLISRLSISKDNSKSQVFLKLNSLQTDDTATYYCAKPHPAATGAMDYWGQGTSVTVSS VL: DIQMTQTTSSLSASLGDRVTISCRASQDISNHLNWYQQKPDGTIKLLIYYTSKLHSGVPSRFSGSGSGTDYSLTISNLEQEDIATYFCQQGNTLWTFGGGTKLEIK", 1]
]}
